# key: entry, value: cell number change
Test: qHTS Assay for Lipid Storage Modulators in Drosophila S3 Cells;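 also: cells counted by Cell Tracker Red CMTPX staining in the red channel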
Conditions: BODIPY lipid droplet fluorescence, 18-24 h, cells fed with added oleic acid; measured here: cell count max response
Hit rate of the full screen: of about 320,000 compounds, about 2,100 (0.66%) were called active. Not shown: some 53% with an inconclusive outcome. What follows is part of a selection rich in actives, with near analogues and random picks from the rest.

GET /values?readout=cell number change&item= O=C(Nc1ccc(N2CCOCC2)cc1)C1CC(=O)N(c2ccc(F)cc2)C1 (stereo unspecified)
18.8%

Next entry: O=C(Nc1ccncc1)C1CCN(S(=O)(=O)c2ccc(Cl)c(C(F)(F)F)c2)CC1
2.68%

Next entry: CCCCCCCC(=O)NN1CCOCC1
12.9%

Next entry: COc1ccc(NC(=O)CSCC(=O)N=c2sccn2C)cc1
23.3%

Next entry: COc1ccc(S(=O)(=O)N2CCCC(C(=O)N3CCOCC3)C2)cc1C (stereo unspecified)
17.1%

Next entry: CN(C)C(CNC(=S)Nc1cccc(Cl)c1)c1cccnc1 (stereo unspecified)
-7.59%
